Study System: T1, human PDGFRb.hFc (human)
T1 construct: Soluble dimeric construct with human Fc; also called hPDGFRb.hFc
Protocol: SPR, mAb captured, 37 C
Assignment: determine reported log10(t1/2) for the given binders.
Note the log scale: values are log10 of t1/2 expressed in min.

Solved cases (3 shown):
Binder	log10(t1/2)
H4H3103S (antibody, human IgG4, V domains shown, human IgG4 Fc (H4H prefix)) VH: EVQLLQSGGGLVQPGGSLRLSCAASGFTFSHYWMSWVRQGPGKGLEWVATIKKDGSESYYVDSVRGRFTISRDNAKNSLYLQMNSLRTEDTAVYYCARDIVTPNVGYYFGMDVWGQGTTVTVSS VL: DIQMTQSPSTLSASVGDRVTITCRASQSISSWLSWYQQKPGKAPKLLIYMASTLESGVPSRFSGSGSGTDFTLTITSLQPDDFATYYCQQSNSYSRTFGHGTKLEIK	1.58
H4H3094P (antibody, human IgG4, V domains shown, also called H4H3394P) VH: EVQLVESGGGLVQPGGSLRLSCAASGFTFSSYWMSWVRQAPGKGLEWVANMNQDGSETHYVDSVKGRLSISRDNAKKSLFLHMNSLRAEDTAVYFCARDLVPPRQDDYYYYFGMDVWGHGTTVTVSS VL: DIQMTQSPSTLSASVGDRVTITCRASQSISDWLAWYQQKPGKAPKLLIFKASTLESGVPSRFSGSGSGTEFTLTISSLQPDDFATYYCQQYNSYSRTFGQGTKVEIK	1.67
H4H3096S (antibody, human IgG4, V domains shown, human IgG4 Fc (H4H prefix)) VH: EVQLVQSGGSLVQPGGSLRLSCTASGFTFSSYWMSWVRQAPGKGLEWVANIQQDESEKYYVDSVKGRFSISRDNAKKSLYLQMNSLRAEDTAVYFCARDLVPPRQGDYYHYFGMDVWGQGTLVTVSS VL: AIRMTQSPSTLSASVGDRVTITCRASQSISDWLAWYQQKPGKAPNLLIYKASSLESGVPSRFSGSGSGTEFTLTISGLQPDDFATYYCQQYNSYSRTFGQGTKLEIKR	1.18

Quick one: give me log10(t1/2) for each item below, same order please.
1. H4H3105S (antibody, human IgG4, V domains shown, human IgG4 Fc (H4H prefix)) VH: QVQLVESGGSLVQPGGSLRLACTASGFTFSSYWMSWVRQAPGKGLEWVANIQQDENEKYYVDSVKGRFSISRDNAKKSLYLQMNSLRVEDTAVYFCARDLVPPRQGDYYHYFGMDVWGQGTTVTVSS VL: DIQLTQSPSTLSASVGDRVTITCRASQSISDWLAWYQQKPGKAPNLLIYKASTLESGVPSRFSGSGSGTEFTLTISSLQPDDFATYYCQQYNSYSRTFGQGTKVEIK
2. H4H3095S (antibody, human IgG4, V domains shown, human IgG4 Fc (H4H prefix)) VH: EVQLVESGGGLVQPGGSLRLSCGASGFTFSSYWMTWVRQAPGKGLEWVGNINQDGSEKYSVDSVKGRFTISRDNAKNSLYLQMNRVRAEDTAVYYCSRDLVPPRQGDNYYYFGMDVWGLGTTVTVSS VL: DIQMTQSPSTLSASVGDRVIITCRASQNINNWLAWYQQQPGKAPKLLIYEASSLESGVPSRFSGSGSGTEFTLTIGSLQPDDFATYYCQHYNSYSRTFGQGTKVDIK
3. H4H3098S (antibody, human IgG4, V domains shown, human IgG4 Fc (H4H prefix)) VH: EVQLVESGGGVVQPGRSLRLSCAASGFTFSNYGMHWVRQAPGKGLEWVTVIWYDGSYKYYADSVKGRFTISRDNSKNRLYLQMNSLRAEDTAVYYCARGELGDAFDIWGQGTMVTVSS VL: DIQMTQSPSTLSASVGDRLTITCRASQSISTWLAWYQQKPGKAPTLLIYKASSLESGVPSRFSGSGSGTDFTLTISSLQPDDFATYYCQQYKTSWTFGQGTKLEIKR
4. H4H3374N (antibody, human IgG4, V domains shown, human IgG4 Fc (H4H prefix)) VH: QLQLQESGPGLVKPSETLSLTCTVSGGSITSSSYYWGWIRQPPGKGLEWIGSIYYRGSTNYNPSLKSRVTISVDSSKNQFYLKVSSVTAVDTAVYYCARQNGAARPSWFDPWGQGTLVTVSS VL: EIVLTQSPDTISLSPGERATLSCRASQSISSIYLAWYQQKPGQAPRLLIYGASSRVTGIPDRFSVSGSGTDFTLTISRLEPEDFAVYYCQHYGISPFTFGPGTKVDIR

1.15
1.20
2.18
1.60
